- TARGET UNDER TEST: Acyl-CoA:cholesterol acyltransferase (Oryctolagus cuniculus)
- Sequence (Q95214 whole entry): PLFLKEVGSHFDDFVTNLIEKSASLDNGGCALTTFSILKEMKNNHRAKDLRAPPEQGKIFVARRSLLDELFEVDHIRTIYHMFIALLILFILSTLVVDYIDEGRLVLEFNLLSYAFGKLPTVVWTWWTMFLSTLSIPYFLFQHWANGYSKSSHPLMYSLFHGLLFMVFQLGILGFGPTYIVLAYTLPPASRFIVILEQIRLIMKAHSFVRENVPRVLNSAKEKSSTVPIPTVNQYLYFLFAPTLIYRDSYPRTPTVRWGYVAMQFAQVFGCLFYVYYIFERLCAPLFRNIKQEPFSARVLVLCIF
- EXPERIMENTAL PROTOCOL: Inhibition against acyl coenzyme A:cholesterol acyltransferase derived from rabbit aorta homogenate
- Assay type: tissue-based
PROPERTY: IC50 (nM)

> print(dat)
                                    molecule  rel  result
 1  CCCCCNC(=O)Nc1c(C)cccc1OCCCn1cnc(-c2ccccc2)c1CCC    =      63
 2  CCCCCNC(=O)Nc1c(C)cccc1CS(=O)(=O)CCn1cnc(-c2ccccc2)c1C    =      90
 3  CCCCCNC(=O)Nc1c(C)cccc1OCCCn1cnc(-c2ccccc2)c1CC    =      79
 4  CCCCCNC(=O)Nc1c(NC)cccc1OCCCn1cnc(-c2ccccc2)c1C    =     600
 5  CCc1c(-c2ccccc2)ncn1CCCOc1cccc(C)c1NC(=O)NCC(C)(C)C    =      68
 6  CCCCCNC(=O)Nc1c(OCCCn2cnc(-c3ccccc3)c2C)cccc1SC    =      19
 7  CCCCCNC(=O)Nc1c(CC)cccc1OCCCn1cnc(-c2ccccc2)c1C    =      44
 8  CCCCCNC(=O)Nc1c(C)cccc1OCCCn1cnc(-c2ccccc2NS(C)(=O)=O)c1    =     240
 9  CCCCCNC(=O)Nc1c(C)cccc1OCCCn1cnc(-c2ccccc2)c1C    =     120
10  CCCCCNC(=O)Nc1c(C)cccc1OCCCn1cnc(-c2ccc(NS(C)(=O)=O)cc2)c1    >    1000
11  Cc1cccc(OCCCn2cnc(-c3ccccc3)c2C)c1NC(=O)NC1CCCCC1    =     180
12  CCCCNC(=O)Nc1c(C)cccc1OCCCn1cnc(-c2ccccc2)c1    =     310
13  CCCCNC(=O)Nc1c(C)cccc1OCCCn1cnc(-c2ccccc2)c1Cl    =     210
14  Cc1cccc(OCCCn2cnc(-c3ccccc3)c2C)c1NC(=O)NCC(C)(C)C    =     140
15  CCCCCNC(=O)Nc1c(F)cccc1OCCCn1cnc(-c2ccccc2)c1C    =      71
16  CCCCCNC(=O)Nc1c(NS(C)(=O)=O)cccc1OCCCn1cnc(-c2ccccc2)c1C    =     480
17  CCCCCNC(=O)Nc1c(C)cccc1OCC(O)Cn1cnc(-c2ccccc2)c1C (stereo unspecified)    =     170
18  CCCCCCNC(=O)Nc1c(C)cccc1OCCCn1cnc(-c2ccccc2)c1C    =      68
19  CCCCCNC(=O)Nc1c(Cl)cccc1OCCCn1cnc(-c2ccccc2)c1C    =     100
20  CCCCCNC(=O)Nc1c(C)cccc1OCCCn1cnc(-c2ccccc2)c1C(N)=O    >    1000
21  CCCCCNC(=O)Nc1c(C)cccc1OCCCn1cnc(-c2ccccc2)c1C(=O)OCC    =      55

###

Reported pIC50 values for a set of molecules
- TARGET UNDER TEST: O-acyltransferase (Oryctolagus cuniculus, UniProt G1SFD9)
- Sequence (G1SFD9 1-524): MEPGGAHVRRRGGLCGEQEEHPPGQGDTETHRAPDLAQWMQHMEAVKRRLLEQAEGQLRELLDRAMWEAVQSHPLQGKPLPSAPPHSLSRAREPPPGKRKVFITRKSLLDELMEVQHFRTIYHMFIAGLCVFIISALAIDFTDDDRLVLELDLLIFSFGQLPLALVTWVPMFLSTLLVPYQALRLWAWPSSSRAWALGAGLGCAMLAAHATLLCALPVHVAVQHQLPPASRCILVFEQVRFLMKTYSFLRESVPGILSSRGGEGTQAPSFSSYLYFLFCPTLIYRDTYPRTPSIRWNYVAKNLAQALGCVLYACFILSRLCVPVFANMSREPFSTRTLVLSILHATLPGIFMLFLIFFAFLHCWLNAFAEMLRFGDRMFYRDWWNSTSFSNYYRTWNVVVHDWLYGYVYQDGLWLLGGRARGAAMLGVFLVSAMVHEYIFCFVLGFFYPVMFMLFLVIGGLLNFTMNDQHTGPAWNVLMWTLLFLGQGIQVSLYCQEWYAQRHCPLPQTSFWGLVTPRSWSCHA
- EXPERIMENTAL PROTOCOL: Inhibition against acyl coenzyme A:cholesterol acyltransferase derived from rabbit intestine microsomes
pIC50: −log10 of the molar value.
PROPERTY: pIC50

> print(dat)
                                 cpd.smiles  property  result
1  CCCCCNC(=O)Nc1c(C)cccc1OCCCn1cnc(-c2c(OC)cc(OC)cc2OC)c1     pIC50  < 6.00
2  CCCCCNC(=O)Nc1c(C)cccc1CS(=O)(=O)CCn1cnc(-c2ccccc2)c1C     pIC50  < 6.00
3  CCCCCNC(=O)Nc1c(NS(=O)(=O)C(F)(F)F)cccc1OCCCn1cnc(-c2ccccc2)c1C     pIC50  < 6.00

###

- TARGET UNDER TEST: Acyl-CoA:cholesterol acyltransferase (Oryctolagus cuniculus)
- EXPERIMENTAL PROTOCOL: Inhibition against acyl coenzyme A:cholesterol acyltransferase derived from rabbit aorta homogenate
- Assay type: tissue-based
pIC50: −log10 of the molar value.
PROPERTY: pIC50

> print(dat)
                                   molecule  result
1  CCCCCNC(=O)Nc1c(C)cccc1OCCCn1cnc(-c2ccccc2)c1CS(C)(=O)=O  < 6.00
2  CCCCCNC(=O)Nc1c(NS(=O)(=O)C(F)(F)F)cccc1OCCCn1cnc(-c2ccccc2)c1C  < 5.00
3  CCCCCNC(=O)Nc1c(C)cccc1[S+]([O-])CCCn1cnc(-c2ccccc2)c1C (stereo not drawn)  < 6.00

###

Reported pIC50 values for a set of compounds
- TARGET UNDER TEST: O-acyltransferase (Oryctolagus cuniculus)
- EXPERIMENTAL PROTOCOL: Inhibition against acyl coenzyme A:cholesterol acyltransferase derived from rabbit intestine microsomes
pIC50: −log10 of the molar value.
PROPERTY: pIC50

> print(dat)
                                 cpd.smiles                         target.under.test  property  rel  result
1  CCCCCNC(=O)Nc1c(C)cccc1OCCCn1cnc(-c2ccccc2)c1C(=O)O  O-acyltransferase (Oryctolagus cuniculus)     pIC50    <    6.00
2  CCCCCNC(=O)Nc1c(C)cccc1OCCCn1cnc(-c2ccccc2[N+](=O)[O-])c1  O-acyltransferase (Oryctolagus cuniculus)     pIC50    =    6.68
3  CCCCCNC(=O)Nc1c(C)cccc1OCCCn1cnc(-c2ccccc2)c1C(C)C  O-acyltransferase (Oryctolagus cuniculus)     pIC50    =    6.74
4  CCCCCNC(=O)Nc1c(OCCCn2cnc(-c3ccccc3)c2C)cccc1S(C)(=O)=O  O-acyltransferase (Oryctolagus cuniculus)     pIC50    =    6.85
5  CCCCCNC(=O)Nc1c(C)cccc1OCCCn1cnc(-c2ccc([N+](=O)[O-])cc2)c1  O-acyltransferase (Oryctolagus cuniculus)     pIC50    =    7.15
6  CCCCCNC(=O)Nc1c(C)cccc1OCCCn1cnc(-c2cccc([N+](=O)[O-])c2)c1  O-acyltransferase (Oryctolagus cuniculus)     pIC50    =    6.89
7  CCCCCNC(=O)Nc1c(C)cccc1OCCCn1cnc(-c2ccccc2)c1C  O-acyltransferase (Oryctolagus cuniculus)     pIC50    =    7.30
8  CCCCCNC(=O)Nc1c(C)cccc1OCCCn1cnc(-c2ccccc2)c1CC  O-acyltransferase (Oryctolagus cuniculus)     pIC50    =    6.77
9  CCCCCNC(=O)Nc1c(C)cccc1OCCCn1cnc(-c2ccccc2C)c1  O-acyltransferase (Oryctolagus cuniculus)     pIC50    =    6.59

###

- TARGET UNDER TEST: Acyl-CoA:cholesterol acyltransferase (Oryctolagus cuniculus)
- EXPERIMENTAL PROTOCOL: Inhibition against acyl coenzyme A:cholesterol acyltransferase derived from rabbit aorta homogenate
- Assay type: tissue-based
pIC50: −log10 of the molar value.
Reported pIC50 values for a set of molecules
PROPERTY: pIC50

> print(dat)
                                 cpd.smiles  result
1  CCCCCNC(=O)Nc1c(CCC)cccc1OCCCn1cnc(-c2ccccc2)c1C    7.01
2  CCCCCNC(=O)Nc1c(C)cccc1COCCn1cnc(-c2ccccc2)c1C    7.00
3  Cc1cccc(OCCCn2cnc(-c3ccccc3)c2C)c1NC(=O)NCCC(C)C    7.00
